pIC50 values, listed per item
biological target: GABAA receptors; test: GABAA receptor binding, [3H]-flunitrazepam displacement on rat brain membranes; conditions: n=6, read-out: GABAAR binding (IC50)
pIC50: −log10 of the molar value.

compound	pIC50
COCCOCCNC(=O)C1N=CN2C3=C(CC(Br)C=C3)C(c3ccccc3F)=N[C@H](C)C12 (stereo partly drawn)	7.24
COCCOCCOCCOCCNC(=O)C1N=CN2C3=C(CC(Br)C=C3)C(c3ccccc3F)=N[C@H](C)C12 (stereo partly drawn)	7.42
COCCOCCOCCOCCOCCNC(=O)c1ncn2c1[C@@H](C)N=C(c1ccccc1F)c1cc(Br)ccc1-2	6.62

FYI, the data here is from patent US20250319096A1.
